- Tested on: Bacillus subtilis ATCC 6633
- Measurement Description: MIC, agar plate dilution method
- Type: cell-based
- Details: ATCC6633, 18 h, Table 2, same microorganisms as Table 1
Quantity: MIC
Field note: include the unit after the figure.

Some entries whose results are on file:
[
  {
    "Molecule": "CC1Sc2c(C(=O)O)c(=O)c3cc(F)c(N4CCN(C)CC4)c(F)c3n21 (stereo not drawn)",
    "MIC": "0.05 µg/mL"
  },
  {
    "Molecule": "NC1CCN(c2c(F)cc3c(=O)c(C(=O)O)c4n(c3c2F)CS4)C1 (stereo not drawn)",
    "MIC": "0.1 µg/mL"
  },
  {
    "Molecule": "O=C(O)c1c2n(c3c(F)c(N4CCNCC4)c(F)cc3c1=O)CS2",
    "MIC": "0.1 µg/mL"
  },
  {
    "Molecule": "O=C(O)c1c2n(c3c(F)c(N4CCNCC4)c(F)cc3c1=O)C(c1ccccc1)S2 (stereo not drawn)",
    "MIC": "0.1 µg/mL"
  },
  {
    "Molecule": "CN1CCN(c2c(F)cc3c(=O)c(C(=O)O)c4n(c3c2F)CS4)CC1",
    "MIC": "0.05 µg/mL"
  }
]

--- query ---
Observed MIC on Bacillus subtilis ATCC 6633 for CCOC(=O)c1c2n(c3c(F)c(N4CCNCC4)c(F)cc3c1=O)C(c1ccc(F)cc1)S2 (stereo not drawn) , please.
0.1 µg/mL

// provenance: patent US5011831A
